From: patent US8163745B2

Test system: wild type HIV strain IIIB
Experiment: Cellular anti-HIV assay in MT4 LTR-EGFP cells (GFP fluorescence), strain IIIB; cytotoxicity in mock-infected MT4 CMV-EGFP cells for the selectivity index
Type: cell-based, HIV-1
Settings: wild type HIV strain IIIB; MT4 LTR-EGFP cells; measured three days after infection
The following molecules are listed with their measured IIIB (pEC50) values.

Field: example entries. Status: answers known.
Cc1cc(/C=C/C#N)cc(C)c1Nc1nc(Nc2ccc(C#N)cc2)ncc1C(C)(O)c1nccs1 (stereo not shown)	7.75
Cc1cc(/C=C/C#N)cc(C)c1Nc1nc(Nc2ccc(C#N)cc2)ncc1C(O)(c1nccs1)C(C)C (stereo not shown)	7.00
CCC(O)(c1nccs1)c1cnc(Nc2ccc(C#N)cc2)nc1Nc1c(C)cc(/C=C/C#N)cc1C (stereo not shown)	7.75

Proceed to the following item.
Query :: Quick one: IIIB (pEC50) of C=CC(O)c1cnc(Nc2ccc(C#N)cc2)nc1Nc1c(C)cc(/C=C/C#N)cc1C (stereo not shown) ?
Result :: 8.91

###

System: HIV mutant strain K103N + Y181C
Assay: microbe, parasite or virus in culture
Assay type: cell-based, HIV-1
Conditions: Human immunodeficiency virus 1, 72 h, read-out: K103N + Y181C (pEC50), strain K103N + Y181C (converted); MT4 LTR-EGFP cells; measured three days after infection
Field 'label' (enum: Yes / No). Set to Yes when EC50 is strictly under 50 nM; else No.

Past entries and their recorded results:
Cc1cc(/C=C/C#N)cc(C)c1Nc1nc(Nc2ccc(C#N)cc2)ncc1C(O)c1nccn1C (centres unmarked) [Compound 11]	Yes
Cc1cc(/C=C/C#N)cc(C)c1Nc1nc(Nc2ccc(C#N)cc2)ncc1C(O)c1cncs1 (centres unmarked) [Compound 10]	Yes
COc1ccccc1C(O)c1cnc(Nc2ccc(C#N)cc2)nc1Nc1c(C)cc(/C=C/C#N)cc1C (centres unmarked) [Compound 5]	Yes
Cc1cc(/C=C/C#N)cc(C)c1Nc1nc(Nc2ccc(C#N)cc2)ncc1C(O)c1nc2ccccc2s1 (centres unmarked) [Compound 14]	No

Query :: For Cc1cc(/C=C/C#N)cc(C)c1Nc1nc(Nc2ccc(C#N)cc2)ncc1C(O)c1cn2ccnc2s1 (centres unmarked) [Compound 16] , is the recorded EC50 below the cut-off of 50 nM?
Result :: No

Query :: Same read-out for Cc1csc(CC(O)c2cnc(Nc3ccc(C#N)cc3)nc2Nc2c(C)cc(/C=C/C#N)cc2C)n1 (centres unmarked) [Compound 6] ?
Result :: No

Query :: Same read-out for Cc1cnc(C(O)c2cnc(Nc3ccc(C#N)cc3)nc2Nc2c(C)cc(/C=C/C#N)cc2C)s1 (centres unmarked) [Compound 7] ?
Result :: Yes

Query :: Same read-out for Cc1cc(/C=C/C#N)cc(C)c1Nc1nc(Nc2ccc(C#N)cc2)ncc1C(O)C1CCCC1 (centres unmarked) [Compound 9] ?
Result :: No

###

Target: HIV strain MDR (mutations L100I, K103N, Y181C, E138G, V1791, L2214F, V278V/I and A327A/V in HIV reverse transcriptase)
Test: microbe, parasite or virus in culture
Type: cell-based, HIV-1
Conditions: MDR strain; MT4 LTR-EGFP cells; measured three days after infection
The following compounds are listed with their measured MDR (pEC50) values.
# output: bare number, no unit

C=CC(O)c1cnc(Nc2ccc(C#N)cc2)nc1Nc1c(C)cc(/C=C/C#N)cc1C (centres unmarked)	6.37
Cc1cc(/C=C/C#N)cc(C)c1Nc1nc(Nc2ccc(C#N)cc2)ncc1C(O)(c1nccs1)C(C)C (centres unmarked)	5.12
CCC(O)(c1nccs1)c1cnc(Nc2ccc(C#N)cc2)nc1Nc1c(C)cc(/C=C/C#N)cc1C (centres unmarked)	5.66
C=CC(O)(c1nccs1)c1cnc(Nc2ccc(C#N)cc2)nc1Nc1c(C)cc(/C=C/C#N)cc1C (centres unmarked)	6.27

Proceed to the following item.
Query :: Quick one: MDR (pEC50) of Cc1cc(/C=C/C#N)cc(C)c1Nc1nc(Nc2ccc(C#N)cc2)ncc1C(C)(O)c1nccs1 (centres unmarked) ?
Result :: 6.40

###

Tested on: HIV mutant strain K103N + Y181C
Experiment: microbe, parasite or virus in culture
Assay type: cell-based, HIV-1
Details: strain K103N + Y181C; MT4 LTR-EGFP cells; measured three days after infection
The following compounds are listed with their measured K103N + Y181C (pEC50) values.
# output: bare number, no unit

Field: example entries. Status: answers known.
Cc1cc(/C=C/C#N)cc(C)c1Nc1nc(Nc2ccc(C#N)cc2)ncc1C(C)(O)c1nccs1 (centres unmarked)	7.62
CCC(O)(c1nccs1)c1cnc(Nc2ccc(C#N)cc2)nc1Nc1c(C)cc(/C=C/C#N)cc1C (centres unmarked)	7.03
Cc1cc(/C=C/C#N)cc(C)c1Nc1nc(Nc2ccc(C#N)cc2)ncc1C(O)(c1nccs1)C(C)C (centres unmarked)	6.24

Query :: Quick one: K103N + Y181C (pEC50) of C=CC(O)(c1nccs1)c1cnc(Nc2ccc(C#N)cc2)nc1Nc1c(C)cc(/C=C/C#N)cc1C (centres unmarked) ?
Result :: 7.54

Query :: Same read-out for C=CC(O)c1cnc(Nc2ccc(C#N)cc2)nc1Nc1c(C)cc(/C=C/C#N)cc1C (centres unmarked) ?
Result :: 8.38

###

Tested on: HIV mutant strain K103N + Y181C
Test: microbe, parasite or virus in culture
Type: cell-based, HIV-1
Conditions: Human immunodeficiency virus 1, 72 h, read-out: K103N + Y181C (pEC50), strain K103N + Y181C (converted); MT4 LTR-EGFP cells; measured three days after infection
ASSAY_METRIC: EC50
Numeric answer plus unit only.

Field: example entries. Status: answers known.
Cc1cc(/C=C/C#N)cc(C)c1Nc1nc(Nc2ccc(C#N)cc2)ncc1C(O)(c1nccs1)c1nccs1 [Compound 21]	0.0851 µM
Cc1cc(/C=C/C#N)cc(C)c1Nc1nc(Nc2ccc(C#N)cc2)ncc1C(O)C#Cc1cncn1C (stereo not drawn) [Compound 13]	0.0389 µM

Query :: Quick one: EC50 of Cc1csc(C(O)c2cnc(Nc3ccc(C#N)cc3)nc2Nc2c(C)cc(/C=C/C#N)cc2C)n1 (stereo not drawn) [Compound 8] ?
Result :: 0.00955 µM

###

The following compounds are listed with their measured EC50 values.
Tested on: HIV mutant strain K103N + Y181C
Assay: microbe, parasite or virus in culture
Assay type: cell-based, HIV-1
Details: Human immunodeficiency virus 1, 72 h, read-out: K103N + Y181C (pEC50), strain K103N + Y181C (converted); MT4 LTR-EGFP cells; measured three days after infection
Numeric answer plus unit only.

Cc1cc(/C=C/C#N)cc(C)c1Nc1nc(Nc2ccc(C#N)cc2)ncc1C(O)c1cccnc1 (stereo not shown)	5.75 nM

Query :: Quick one: EC50 of Cc1cc(/C=C/C#N)cc(C)c1Nc1nc(Nc2ccc(C#N)cc2)ncc1C(O)c1ccccn1 (stereo not shown) ?
Result :: 3.24 nM

Query :: Same read-out for Cc1cc(/C=C/C#N)cc(C)c1Nc1nc(Nc2ccc(C#N)cc2)ncc1C(O)c1scnc1Br (stereo not shown) ?
Result :: 18.2 nM

Query :: Same read-out for Cc1cc(/C=C/C#N)cc(C)c1Nc1nc(Nc2ccc(C#N)cc2)ncc1C(O)c1csc2nc(Cl)cn12 (stereo not shown) ?
Result :: 107 nM
